B1: CPXM2 (parent)
chain: TASTKNCMVGYDMGATRCDFTLSK

Variants of: B1
experiment.description: protein stability index of a GFP-peptide fusion (GPS, HEK-293T) (PSI 1-6); higher = more stable;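 also: lentivirally expressed fusions sorted by FACS into six bins by GFP to DsRed ratio, PSI derived from sequencing read proportions per bin multiplied by bin number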
test.parameters: c terminus: a fixed tail appended
property.measured: protein stability index

>>> endpoint_value("D12T")
1.98
>>> endpoint_value("T4Y")
2
>>> endpoint_value("L22E")
3.07
>>> endpoint_value("D12W")
1.98

Data provenance is the supplement of paper PMC10567573.
